# TARGET_SYSTEM: wild type chromodomain of CBX1 (Chromobox protein 1) (UniProt P83916 20-73)
# Sequence (P83916 20-73): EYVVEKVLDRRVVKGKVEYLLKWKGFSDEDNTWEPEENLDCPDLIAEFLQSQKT
# METHOD: ITC

- BINDER: "ARTKQTARKSTGGKA (trimethyllysine at K9) [H3K9me3 peptide 3 (non-TAMRA)]"
  Kd: "5.3 µM"
